Overview of reported IC50 across a group of compounds:
tested system: hMMP-12 (Homo sapiens, UniProt P39900)
Sequence (P39900 106-263): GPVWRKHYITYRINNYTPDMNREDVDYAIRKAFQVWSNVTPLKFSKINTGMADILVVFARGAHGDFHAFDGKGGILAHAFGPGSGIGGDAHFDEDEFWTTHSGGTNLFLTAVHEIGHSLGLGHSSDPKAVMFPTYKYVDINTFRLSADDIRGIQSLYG

{"columns": ["compound", "IC50"],
 "data": [
  ["CNC(=O)[C@H](Cc1c[nH]c2ccccc12)NC(=O)[C@@H](CC(=O)NO)CC(C)C [GM6001, reference compound]", "~2.5 nM"]
]}

--- query ---
-- ask Provide the reported IC50 (system: hMMP-12 (Homo sapiens, UniProt P39900)) for `COc1ccc(CCC[C@H](NC(=O)CN2CCOCC2)C(=O)N[C@H](CCc2ccc(OC)cc2)C(=O)N[C@H](Cc2ccc(C)cc2)C(=O)NO)cc1`
-- reply ~4 nM
